Reported pIC50 values for a set of compounds
target: human CYP2D6 (Homo sapiens, UniProt P10635)
Sequence (P10635 whole entry): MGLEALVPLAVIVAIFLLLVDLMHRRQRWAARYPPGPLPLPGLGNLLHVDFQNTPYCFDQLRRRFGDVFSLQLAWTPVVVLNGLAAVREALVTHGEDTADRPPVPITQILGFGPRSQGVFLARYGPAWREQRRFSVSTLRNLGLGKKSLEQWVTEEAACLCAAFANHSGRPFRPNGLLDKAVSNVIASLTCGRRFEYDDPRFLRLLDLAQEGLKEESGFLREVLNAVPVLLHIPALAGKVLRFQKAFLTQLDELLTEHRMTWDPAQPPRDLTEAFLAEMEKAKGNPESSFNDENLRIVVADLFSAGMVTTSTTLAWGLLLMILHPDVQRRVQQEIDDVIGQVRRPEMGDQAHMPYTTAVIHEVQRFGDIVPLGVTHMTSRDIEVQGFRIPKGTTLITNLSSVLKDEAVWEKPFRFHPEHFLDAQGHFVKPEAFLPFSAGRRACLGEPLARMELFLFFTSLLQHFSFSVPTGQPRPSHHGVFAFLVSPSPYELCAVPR
pIC50: −log10 of the molar value.

>  <Compound>
CCCCCCCCCCCCCC[P+](CCCCCC)(CCCCCC)CCCCCC.O=S(=O)([N-]S(=O)(=O)C(F)(F)F)C(F)(F)F

>  <pIC50>
6.60

$$$$
>  <Compound>
Nc1nc2ccccc2n1Cc1ccc(F)cc1

>  <pIC50>
6.17

$$$$
>  <Compound>
N#Cc1c(-c2ccc(Cl)cc2)[nH]c(C(F)(F)F)c1Br

>  <pIC50>
4.18

$$$$
>  <Compound>
CCCOC(C(=O)OC1CCN(C)CC1)(c1ccccc1)c1ccccc1.Cl [Propiverine hydrochloride]

>  <pIC50>
5.17

$$$$
>  <Compound>
CCCN(CCC)CCc1c[nH]c2ccccc12.Cl [N,N-Dipropyltryptamine hydrochloride]

>  <pIC50>
6.51

$$$$
>  <Compound>
CN1CCN(C2Cc3ccccc3Sc3ccc(Cl)cc32)CC1.O=C(O)/C=C\C(=O)O (stereo not shown) [Octoclothepine maleate]

>  <pIC50>
6.59

$$$$
>  <Compound>
CCOc1cc(OCC)c(C(C)=O)cc1OCC

>  <pIC50>
4.16

$$$$
>  <Compound>
O=C(NCc1cccnc1)Nc1ccc([N+](=O)[O-])cc1

>  <pIC50>
4.35

$$$$
>  <Compound>
CNC(C)Cc1ccc2c(c1)OCO2.Cl (stereo not shown)

>  <pIC50>
6.40

$$$$
>  <Compound>
Cc1cc(N=Nc2ccccc2C)ccc1N

>  <pIC50>
4.34

$$$$
>  <Compound>
CC(C)(C)c1cc(CCC(=O)NN)cc(C(C)(C)C)c1O

>  <pIC50>
4.46

$$$$
>  <Compound>
COC(=O)c1cncn1C(C)c1ccccc1.Cl (stereo not shown) [Metomidate hydrochloride]

>  <pIC50>
5.25

$$$$
>  <Compound>
CCc1ccc(C(=O)C(C)CN2CCCCC2)cc1.Cl (stereo not shown) [Eperisone hydrochloride]

>  <pIC50>
6.29

$$$$
>  <Compound>
CC(=O)c1ccc2ccc3ccccc3c2c1

>  <pIC50>
4.05

$$$$
>  <Compound>
Oc1cc2ccccc2c2ccccc12

>  <pIC50>
5.60

$$$$
>  <Compound>
CCCCCCCCCCCCCC[P+](CCCC)(CCCC)CCCC.CCCCCCCCCCCCc1ccc(S(=O)(=O)[O-])cc1

>  <pIC50>
6.68

$$$$
>  <Compound>
COc1cc(-c2ccc(N)c(OC)c2)ccc1N.Cl.Cl [3,3'-Dimethoxybenzidine dihydrochloride]

>  <pIC50>
4.52

$$$$
>  <Compound>
C=CC(=O)OCC(CO)(COCC(COC(=O)C=C)(COC(=O)C=C)COC(=O)C=C)COC(=O)C=C [Dipentaerythritol pentaacrylate]

>  <pIC50>
4.57

$$$$
>  <Compound>
Nc1nc2ccc([N+](=O)[O-])cc2s1

>  <pIC50>
4.36

$$$$

====

molecular target: human CYP2C19 (Homo sapiens); assay: biochemical; details: CYP2C19 AC50 (half-maximal activity concentration)
Sequence (P33261 whole entry): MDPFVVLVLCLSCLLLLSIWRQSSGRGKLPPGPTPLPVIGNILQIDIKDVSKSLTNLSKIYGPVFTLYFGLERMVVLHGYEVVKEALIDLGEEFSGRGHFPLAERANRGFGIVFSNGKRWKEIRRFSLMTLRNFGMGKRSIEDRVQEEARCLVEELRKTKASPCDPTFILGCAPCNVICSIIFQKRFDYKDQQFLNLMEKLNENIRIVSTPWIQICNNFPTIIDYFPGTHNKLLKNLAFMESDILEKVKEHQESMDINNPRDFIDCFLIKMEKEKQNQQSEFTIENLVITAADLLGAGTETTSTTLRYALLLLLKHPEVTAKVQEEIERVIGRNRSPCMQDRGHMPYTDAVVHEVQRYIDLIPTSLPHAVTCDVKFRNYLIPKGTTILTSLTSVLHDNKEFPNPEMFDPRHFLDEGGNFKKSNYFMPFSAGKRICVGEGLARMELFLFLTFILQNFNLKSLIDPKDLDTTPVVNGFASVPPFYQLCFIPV
Reported log10(AC50) values for a set of molecules
Measurement kind: log10(AC50) (log10 of the value in µM)

>  <Molecule>
Clc1ccc(C(c2ccccc2Cl)C(Cl)Cl)cc1 (centres unmarked) [o,p'-DDD]

>  <Assayed target>
human CYP2C19 (Homo sapiens)

>  <log10(AC50)>
0.02

$$$$
>  <Molecule>
CCNc1nc(NC(C)C)nc(OC)n1

>  <Assayed target>
human CYP2C19 (Homo sapiens)

>  <log10(AC50)>
1.51

$$$$
>  <Molecule>
CSc1nc(NC(C)C)nc(NC(C)C)n1

>  <Assayed target>
human CYP2C19 (Homo sapiens)

>  <log10(AC50)>
1.85

$$$$
>  <Molecule>
CN1CCC(=C2c3ccccc3CC(=O)c3sccc32)CC1

>  <Assayed target>
human CYP2C19 (Homo sapiens)

>  <log10(AC50)>
1.57

$$$$
>  <Molecule>
CCCCCCCC(=O)Oc1c(Br)cc(C#N)cc1Br [Bromoxynil octanoate]

>  <Assayed target>
human CYP2C19 (Homo sapiens)

>  <log10(AC50)>
1.51

$$$$
>  <Molecule>
COC(=O)CCCCCCCCC(=O)OC [Dimethyl decanedioate]

>  <Assayed target>
human CYP2C19 (Homo sapiens)

>  <log10(AC50)>
1.81

$$$$
>  <Molecule>
CCCCCCCCOc1ccc(C(=O)c2ccccc2)c(O)c1

>  <Assayed target>
human CYP2C19 (Homo sapiens)

>  <log10(AC50)>
1.73

$$$$
>  <Molecule>
ClC(c1ccccc1)(c1ccccc1)c1ccccc1 [Trityl chloride]

>  <Assayed target>
human CYP2C19 (Homo sapiens)

>  <log10(AC50)>
-0.59

$$$$
>  <Molecule>
CC(=O)c1ccc2ccccc2c1

>  <Assayed target>
human CYP2C19 (Homo sapiens)

>  <log10(AC50)>
1.65

$$$$
>  <Molecule>
O=C(c1ccccc1)C(O)c1ccccc1 (centres unmarked)

>  <Assayed target>
human CYP2C19 (Homo sapiens)

>  <log10(AC50)>
1.20

$$$$
>  <Molecule>
O=C(c1ccccc1)C1CCCCC1

>  <Assayed target>
human CYP2C19 (Homo sapiens)

>  <log10(AC50)>
1.65

$$$$
